Test system: IGR-1;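 note: growth inhibition of human IGR-1 cells, read out with a cell viability assay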
Test: cells
Format: functional, cell-based
Conditions: Homo sapiens
Description: SANGER: Inhibition of human IGR-1 cell growth in a cell viability assay.
pIC50: −log10 of the molar value.

# compound, relation-symbol, pIC50
records = [
    ("C/C=C(/C)C(=O)O[C@H]1C(C)=C2[C@H]([C@@H]1OC(=O)CCCCCCC)[C@@](C)(OC(C)=O)C[C@H](OC(=O)CCC)[C@@]1(O)[C@H]2OC(=O)[C@@]1(C)O [THAPSIGARGIN]", "=", 7.98),
    ("CC(C)=CC[C@@H](O)C1=CC(=O)c2c(O)ccc(O)c2C1=O [SHIKONIN]", "=", 6.81),
    ("CCCS(=O)(=O)Nc1ccc(F)c(C(=O)c2c[nH]c3ncc(Cl)cc23)c1F [PLX-4720]", "<", 5.00),
    ("N#C/C(=C1/Nc2ccccc2S1)c1ccnc(NCCc2cccnc2)n1", "=", 5.33),
    ("O=c1[nH]c2ccccc2n1C1CCN(Cc2ccc(-c3nc4cc5[nH]cnc5cc4nc3-c3ccccc3)cc2)CC1", "<", 5.59),
    ("NC(=O)[C@@H](CCC(F)(F)F)N(Cc1ccc(-c2ncon2)cc1F)S(=O)(=O)c1ccc(Cl)cc1", "=", 5.98),
    ("COc1cc(Nc2c(C#N)cnc3cc(OCCCN4CCN(C)CC4)c(OC)cc23)c(Cl)cc1Cl [BOSUTINIB]", "<", 5.70),
    ("CC(=O)c1c(C)c2cnc(Nc3ccc(N4CCNCC4)cn3)nc2n(C2CCCC2)c1=O [PALBOCICLIB]", "<", 5.40),
]

###

This section presents molecules with their documented pIC50 values.
Test system: HL-60
Assay: cells
Type: functional, cell-based
Details: Homo sapiens
Description: SANGER: Inhibition of human HL-60 cell growth in a cell viability assay.
pIC50: −log10 of the molar value.
reported-endpoint: pIC50

# molecule, relation-symbol, quantitative-result
measured = [
    ("C/C(O)=C(\\C#N)C(=O)Nc1cc(Br)ccc1Br", "<", 4.80),
    ("Cc1ccc(NC(=O)c2cccc(C(C)(C)C#N)c2)cc1Nc1ccc2ncn(C)c(=O)c2c1", "=", 6.81),
    ("CC[C@@]1(O)C(=O)OCc2c1cc1n(c2=O)Cc2cc3ccccc3nc2-1 [CAMPTOTHECIN]", "=", 8.43),
    ("CCCS(=O)(=O)Nc1ccc(F)c(C(=O)c2c[nH]c3ncc(Cl)cc23)c1F [PLX-4720]", "<", 5.00),
]

###

Test system: NCI-H1618;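 note: growth inhibition of human NCI-H1618 cells, measured by a cell viability assay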
Assay: cells
Assay type: functional, cell-based
Settings: Homo sapiens
Description: SANGER: Inhibition of human NCI-H1618 cell growth in a cell viability assay.

# compound, IC50
records = [
    ("C/C(O)=C(\\C#N)C(=O)Nc1cc(Br)ccc1Br", "> 16000 nM"),
    ("C/C=C(/C)C(=O)O[C@H]1C(C)=C2[C@H]([C@@H]1OC(=O)CCCCCCC)[C@@](C)(OC(C)=O)C[C@H](OC(=O)CCC)[C@@]1(O)[C@H]2OC(=O)[C@@]1(C)O [THAPSIGARGIN]", "10.1 nM"),
    ("N#C/C(=C1/Nc2ccccc2S1)c1ccnc(NCCc2cccnc2)n1", "> 8000 nM"),
    ("CC(O)(CS(=O)(=O)c1ccc(F)cc1)C(=O)Nc1ccc(C#N)c(C(F)(F)F)c1 (centres undefined) [BICALUTAMIDE]", "> 1020 nM"),
]
